- measurement-target: β-secretase(BACE) (Homo sapiens, UniProt P56817)
- Construct: purchased Panvera
- Sequence (P56817 46-501): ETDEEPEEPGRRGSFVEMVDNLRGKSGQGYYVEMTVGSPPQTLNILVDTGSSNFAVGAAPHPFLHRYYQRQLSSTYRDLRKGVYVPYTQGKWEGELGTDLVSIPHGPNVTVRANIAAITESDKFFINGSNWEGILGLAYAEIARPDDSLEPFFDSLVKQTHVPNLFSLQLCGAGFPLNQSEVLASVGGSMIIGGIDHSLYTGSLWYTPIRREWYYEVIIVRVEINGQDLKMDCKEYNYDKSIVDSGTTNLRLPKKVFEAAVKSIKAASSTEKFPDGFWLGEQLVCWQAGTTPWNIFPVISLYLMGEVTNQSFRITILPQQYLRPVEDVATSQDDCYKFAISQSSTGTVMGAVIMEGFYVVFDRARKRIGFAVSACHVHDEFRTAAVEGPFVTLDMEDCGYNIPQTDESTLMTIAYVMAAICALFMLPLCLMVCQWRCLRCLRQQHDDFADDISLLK
- assay-overview: BACE Assay-1 (MCA-substrate, IC50)
- Assay type: biochemical
- stated-conditions: procedure of Example 158; read-out: IC50 μM (158)
Reported log10 IC50 by item:
The base-10 logarithm of IC50, taken with IC50 in µM, is what appears here.

These solved cases illustrate the format of a correct answer.
compound | numeric-readout
CN(C(=O)c1cccc(CN2Cc3cc(Oc4cccc(NS(=O)(=O)c5ccccc5)c4)ccc3N=C2N)c1)C1CCCCC1 | -1.28
NC1=Nc2ccc(Oc3ccccc3)cc2CN1CCNC(=O)C1CC1 | 0.08
COc1ccccc1-c1ccc2c(c1)CN(Cc1cccc(C(=O)N(C)C3CCCCC3)c1)C(N)=N2 | -1.85
NC1=Nc2ccc(Oc3ccccc3)cc2CN1CCNC(=O)C1CCC1 | -0.35
CN(C(=O)c1cccc(CN2Cc3cc(-c4ccsc4)ccc3N=C2N)c1)C1CCCCC1 | -0.96
CC(C)C(=O)NCC(C1CCCCC1)N1Cc2cc(Oc3ccccc3)ccc2N=C1N (stereo not shown) | -0.82
CCCC(CNC(=O)C1CCCCC1)N1Cc2cc(Oc3ccccc3)ccc2N=C1N (stereo not shown) | -1.39
CN(C(=O)CCCCN1Cc2cc(Oc3cccc(NCC4CCCCC4)c3)ccc2N=C1N)C1CCCCC1 | -0.11

(Q) Can you look up the measured log10 IC50 of NC1=Nc2ccc(C(=O)c3ccccc3)cc2CN1CCCCC(=O)NC1CCCCC1 for me?
(A) 0.36

(Q) Return reported log10 IC50; argument: CCCN1Cc2cc(Oc3cccc(NCc4ccccc4)c3)ccc2N=C1N
(A) -1.09

(Q) I am curious: what log10 IC50 value has been reported for CCCN1Cc2cc(Oc3cccc(NS(=O)(=O)c4ccc(C)cc4OC)c3)ccc2N=C1N ?
(A) -0.77

(Q) log10 IC50 lookup needed for CCCC(CNC(=O)OC(C)(C)C)N1Cc2cc(Oc3ccccc3)ccc2N=C1N (stereo not shown) , thanks.
(A) -0.60

(Q) log10 IC50 lookup needed for NC1=Nc2ccc(C(=O)c3ccccc3)cc2CN1CCCCC(=O)N(C1CCCCC1)C1CCCCC1 , thanks.
(A) -0.22

(Q) Look up log10 IC50: NC1=Nc2ccc(Oc3cccc(NS(=O)(=O)c4ccccc4)c3)cc2CN1CCCCCO
(A) -0.15

====

- measurement-target: β-secretase(BACE) (Homo sapiens)
- Construct: purchased Panvera
- assay-overview: BACE % Inhibition Assay ((Aedens)-[…]-(Dabcyl K-amide) substrate)
- Format: biochemical
- stated-conditions: 3 μM test compound; % error ±10%; read-out: % Inhibition
Quick reference for inhibition at 3 µM among some compounds
Quick reminder: number only, in %, skip the unit.

compound | reported-metric | unit-abbreviation | numeric-readout
CN(C(=O)c1cc(CN2Cc3cc(Oc4ccccc4)ccc3N=C2N)ccn1)C1CCCCC1 | inhibition at 3 µM | % | 77

(Q) Any idea what inhibition at 3 µM was measured for CCCN1Cc2cc(Oc3cccc(NCC4CCCCC4)c3)ccc2N=C1N ?
(A) 62

(Q) Which inhibition at 3 µM reading was recorded for the compound NC1=Nc2ccc(Oc3ccccc3)cc2CN1C(CNC(=O)c1ccccc1)C1CCCCC1 (stereo not drawn) ?
(A) 120

(Q) Requested field: inhibition at 3 µM. Item: CN(C(=O)CCC(CCC(=O)N(C)C1CCCCC1)N1Cc2cc(Oc3ccccc3)ccc2N=C1N)C1CCCCC1
(A) 38

(Q) Which measured inhibition at 3 µM value corresponds to CCCC(CNC(=O)C1CCCCC1)N1Cc2cc(Oc3ccccc3)ccc2N=C1N (stereo not drawn) ?
(A) 118

(Q) # lookup: inhibition at 3 µM of CC(C)(C)OC(=O)NCC(C1CCCCC1)N1Cc2cc(Oc3ccccc3)ccc2N=C1N (stereo not drawn)
(A) 111

(Q) Record request: inhibition at 3 µM value, item NC1=Nc2ccc(Oc3ccccc3)cc2CN1Cc1cccc(C(=O)N(C2CCCCC2)C2CCCCC2)c1
(A) 76

(Q) Given the entry CCCN1Cc2cc(Oc3cccc(NC(=O)OCc4ccccc4)c3)ccc2N=C1N , report its measured inhibition at 3 µM.
(A) 44

(Q) Requested read-out: inhibition at 3 µM. Entry: CCCN1Cc2cc(Oc3cccc(N(C(=O)OCc4ccccc4)C4CCCCC4)c3)ccc2N=C1N
(A) 56

(Q) # get_value(readout='inhibition at 3 µM', item= CN(CCCN1Cc2cc(C(=O)c3ccccc3)ccc2N=C1N)C1CCCCC1 )
(A) 42

(Q) Give the measured inhibition at 3 µM of CCCN1Cc2cc(Oc3cccc(NS(=O)(=O)c4ccccc4)c3)ccc2N=C1N .
(A) 75

(Q) Look at this compound and give its reported inhibition at 3 µM. NC1=Nc2ccc(Oc3ccccc3)cc2CN1C(CNC(=O)CCC1CCCC1)C1CCCCC1 (stereo not drawn)
(A) 119

(Q) What does the record list as inhibition at 3 µM for CC(C)(C)OC(=O)NCCN1Cc2cc(Oc3ccccc3)ccc2N=C1N ?
(A) 61

(Q) GET /values?readout=inhibition at 3 µM&item= CCCC(CNC(=O)OC(C)(C)C)N1Cc2cc(Oc3ccccc3)ccc2N=C1N (stereo not drawn)
(A) 103

(Q) What value of inhibition at 3 µM has been recorded for this entry: CN(C(=O)CCN1Cc2cc(Oc3ccccc3)ccc2N=C1N)C1CCCCC1
(A) 68

====

Each entry below carries its recorded % Inhibition (FS) 0.3 μM.
- measurement-target: β-secretase(BACE) (Homo sapiens, UniProt P56817)
- Construct: purchased Panvera
- assay-overview: BACE FS1% Inhibition Assay
- Type: biochemical
- stated-conditions: 0.3 μM test compound; FS1 substrate

Example entries and their recorded answers appear below.
compound | % Inhibition (FS) 0.3 μM
CC(C)[C@@H](CNC(=O)C1CCCCC1)N1Cc2cc(Oc3ccccc3)ccc2N=C1N | <30%
CCCCC(CC)C(=O)NCCN1Cc2cc(-c3ccccc3F)ccc2N=C1N (stereo not shown) | 39%
NC1=Nc2ccc(-c3ccncc3)cc2CN1CCNC(=O)C1CCCCC1 | <30%
CCCN(CC1CC1)C(=O)c1cccc(CN2Cc3cc(Oc4ccccc4)ccc3N=C2N)c1 | <30%
CC(C)c1ccc(Sc2ccc3c(c2)CN(Cc2cccc(C(=O)N(C)C4CCCCC4)c2)C(N)=N3)cc1 | <30%
CN1CCC(N(C)C(=O)c2cccc(C(c3ccccc3)N3Cc4cc(Oc5ccccc5)ccc4N=C3N)c2)CC1 (stereo not shown) | <30%

Would you kindly look at the next entry?
(Q) Please report the recorded % Inhibition (FS) 0.3 μM for CN(C(=O)c1cccc(CN2Cc3cc(OC4CCCC4)ccc3N=C2N)c1)C1CCCCC1 .
(A) <30%

====

- measurement-target: β-secretase(BACE) (Homo sapiens)
- Construct: purchased Panvera
- assay-overview: BACE FS1% Inhibition Assay
- Assay type: biochemical
- stated-conditions: 0.3 μM test compound; FS1 substrate
- Protocol: BACE FS1% Inhibition Assay The following reagents were used in this assay: sodium acetate, PEG8000 (Sigma), DMSO, HEPES, FS1 substrate [[…]] […] The FS1-substrate stock solution was prepared in DMSO as a 10 mg/mL solution. The FS1-substrate working solution was prepared by diluting the 10 mg/mL stock solution with substrate assay buffer to a final concentration of 300 μg/mL. […] For test compounds, % inhibition was determined at each concentration as follows: [formula]
Listed here: items and their measured % Inhibition (FS).
Just the number please, in %, no unit attached.

Some solved cases for reference:
compound | numeric-readout
CN(C(=O)CCC(C1CCOCC1)N1Cc2cc(Oc3ccccc3)ccc2N=C1N)C1CCC(C(=O)O)CC1 (centres unmarked) [Compound 743] | 107
COc1ccccc1-c1ccc2c(c1)CN([C@@H](CCC(=O)N(C)Cc1cc(-c3ccccc3)on1)C1CCCCC1)C(N)=N2 [Compound 719] | 31
NC1=Nc2ccc(-c3ccccc3)cc2CN1CCNC(=O)CCC(F)(F)F [Compound 684] | 33
Cc1ccccc1-c1ccc2c(c1)CN(CCNC(=O)CCC(F)(F)F)C(N)=N2 [Compound 678] | 51

Turning now to a further record.
(Q) # query: % Inhibition (FS) of entry CN(C(=O)CCC(C1CCCCC1)N1Cc2cc(Oc3ccccc3)ccc2N=C1N)C(COCc1ccccc1)C(=O)O (centres unmarked) [Compound 781]
(A) 106

====

- measurement-target: β-secretase(BACE) (Homo sapiens, UniProt P56817)
- Construct: purchased Panvera
- assay-overview: BACE FS1% Inhibition Assay
- Type: biochemical
- stated-conditions: 1 μM test compound; FS1 substrate; read-out: % Inhibition (FS) 1 μM
- Protocol: BACE FS1% Inhibition Assay The following reagents were used in this assay: sodium acetate, PEG8000 (Sigma), DMSO, HEPES, FS1 substrate [[…]] […] The FS1-substrate stock solution was prepared in DMSO as a 10 mg/mL solution. The FS1-substrate working solution was prepared by diluting the 10 mg/mL stock solution with substrate assay buffer to a final concentration of 300 μg/mL. […] For test compounds, % inhibition was determined at each concentration as follows: [formula]
Catalogue of compounds with associated inhibition at 1 µM
Hi! Could you send only the number? It should be in %, unit omitted.

Some solved entries appear below for comparison.
entry-smiles | measurement-target | reported-metric | unit-abbreviation | numeric-readout
CN(C(=O)CC[C@@H](CO)N1Cc2cc(Oc3ccccc3)ccc2N=C1N)C1CCCCC1 | β-secretase(BACE) (Homo sapiens, UniProt P56817) | inhibition at 1 µM | % | 92
CN(C(=O)c1cccc(CN2Cc3cc(-c4ccccc4Br)ccc3N=C2N)c1)C1CCCCC1 | β-secretase(BACE) (Homo sapiens, UniProt P56817) | inhibition at 1 µM | % | 60

Attention now turns to another entry.
(Q) Notebook entry, β-secretase(BACE) (Homo sapiens, UniProt P56817) assay: inhibition at 1 µM of CN(C(=O)c1ccnc(CN2Cc3cc(Oc4ccccc4)ccc3N=C2N)c1)C1CCCCC1 = ?
(A) 74
